Compiled literature pIC50, tested on ROCK2 (Homo sapiens, UniProt O75116).
Sequence (O75116 whole entry, species assumed): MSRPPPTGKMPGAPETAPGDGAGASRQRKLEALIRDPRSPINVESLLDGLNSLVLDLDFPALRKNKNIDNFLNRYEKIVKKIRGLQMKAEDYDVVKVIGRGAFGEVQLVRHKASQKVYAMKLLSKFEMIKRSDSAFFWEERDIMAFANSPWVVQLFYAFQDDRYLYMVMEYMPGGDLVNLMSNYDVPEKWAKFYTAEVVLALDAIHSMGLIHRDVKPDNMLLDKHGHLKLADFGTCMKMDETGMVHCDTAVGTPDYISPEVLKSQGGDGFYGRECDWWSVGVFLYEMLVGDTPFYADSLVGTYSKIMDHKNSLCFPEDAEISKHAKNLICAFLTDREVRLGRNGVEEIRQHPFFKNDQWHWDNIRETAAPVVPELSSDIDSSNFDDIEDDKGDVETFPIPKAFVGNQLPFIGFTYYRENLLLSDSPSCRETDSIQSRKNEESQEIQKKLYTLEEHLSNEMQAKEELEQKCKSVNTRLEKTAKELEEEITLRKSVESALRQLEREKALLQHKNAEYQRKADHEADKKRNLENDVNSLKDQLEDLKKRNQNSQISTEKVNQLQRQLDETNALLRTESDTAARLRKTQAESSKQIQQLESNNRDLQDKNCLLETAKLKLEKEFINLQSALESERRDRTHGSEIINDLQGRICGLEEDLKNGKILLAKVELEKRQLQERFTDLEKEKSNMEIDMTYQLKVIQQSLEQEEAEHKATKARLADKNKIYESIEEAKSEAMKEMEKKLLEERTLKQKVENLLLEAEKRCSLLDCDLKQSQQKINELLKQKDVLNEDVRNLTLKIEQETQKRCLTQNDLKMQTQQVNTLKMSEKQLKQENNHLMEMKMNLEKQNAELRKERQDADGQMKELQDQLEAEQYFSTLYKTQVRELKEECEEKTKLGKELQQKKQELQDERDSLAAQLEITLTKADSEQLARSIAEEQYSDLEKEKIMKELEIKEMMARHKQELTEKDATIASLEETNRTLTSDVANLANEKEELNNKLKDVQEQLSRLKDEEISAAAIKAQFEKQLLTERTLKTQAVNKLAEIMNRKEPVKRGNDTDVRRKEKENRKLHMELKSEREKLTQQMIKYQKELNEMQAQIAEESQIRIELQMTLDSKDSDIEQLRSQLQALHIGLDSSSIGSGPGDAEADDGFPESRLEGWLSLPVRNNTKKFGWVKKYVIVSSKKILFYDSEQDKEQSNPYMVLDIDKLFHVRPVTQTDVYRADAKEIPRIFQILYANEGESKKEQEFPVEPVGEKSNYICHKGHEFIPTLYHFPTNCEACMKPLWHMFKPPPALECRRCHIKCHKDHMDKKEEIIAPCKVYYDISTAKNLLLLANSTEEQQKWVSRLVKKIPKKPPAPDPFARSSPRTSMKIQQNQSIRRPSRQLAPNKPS
pIC50: −log10 of the molar value.

Worked cases, answers included:
> print(dat)
                                   compound  assay.result
1  COc1cccc(C(C)N2CCN(c3ccc(-c4cn[nH]c4)c(C)n3)C2=O)c1 (single isomer, unassigned)  7.70 to 8.68
2  CCOC(=O)N1CCC2(CC1)CN(c1ccc(-c3cn[nH]c3)cc1)C(=O)N2Cc1cccc(OC)c1        > 8.52
3  CN(C)c1ccc(C(=O)NC2CC3(C2)CC(c2n[nH]c(=O)c4ccccc24)C3)cc1 (stereo not shown)  5.68 to 7.00

Moving on to the next compound.
GET /values?readout=pIC50&system=ROCK2 (Homo sapiens, UniProt O75116)&item= COCCN1Cc2cccc(C(=O)N3CCC4(CC3)CCN(c3ccc(-c5cn[nH]c5)c(OC)c3)C4=O)c2C1=O
7.30

* * *

Field: IC50. System: ROCK2 (Homo sapiens). Provenance: assorted publications.
parameter: IC50 (nM)

Take a look at these entries with their results.
> print(dat)
                                   compound        assayed.target  parameter  assay.result
1  COc1cc(N2CCC3(CCN(C(=O)c4ccc5oc(C)nc5c4)CC3)C2=O)ccc1-c1cn[nH]c1  ROCK2 (Homo sapiens)       IC50            70
2  NC(=O)c1cccnc1Oc1ccc(CC(=O)Nc2n[nH]c3ccccc23)cc1Cl  ROCK2 (Homo sapiens)       IC50            97
3  NC(=O)c1cccnc1Oc1ccc(CC(=O)Nc2nc3c(F)cccn3n2)cc1F  ROCK2 (Homo sapiens)       IC50           127
4  [H][C@]1(Oc2ncccc2C(N)=O)C[C@]2(C[C@@H](N3C(=O)NC(CCC4CC4)C3=O)C2)C1 (stereo partly shown)  ROCK2 (Homo sapiens)       IC50            44
5  Cc1nnc(NC(=O)Cc2ccc(Oc3ncccc3C(N)=O)cc2)s1  ROCK2 (Homo sapiens)       IC50          1110
6  COc1ccc(C(=O)N[C@H](CO)c2cccc(C(=O)Nc3nc4c(s3)CN(C)CC4)c2)cc1C  ROCK2 (Homo sapiens)       IC50          19.6

I. COc1cnc(C(=O)N2CCC3(CC2)CCN(c2ccc(-c4cn[nH]c4)c(OC)c2)C3=O)cn1
II. O=C(Nc1nc2ccncc2s1)C1CC1c1ccccc1 (stereo not shown)
Field: lower IC50 | Options: I / II Answer with the label corresponding to your selection.
II
(II: 12 nM, I: 86 nM)

* * *

IC50 for ROCK2 (Homo sapiens, UniProt O75116), merged from several publications.
parameter: IC50 (nM)

A. Cn1cc(-c2ccc3c(c2)nc(NC(=O)Cc2ccc(Oc4ncccc4C(N)=O)c(F)c2)n3CC(F)(F)F)cn1
B. O=C(Cc1ccccc1Cl)Nc1ccc(-c2cn[nH]c2)cc1
C. COc1cc(N2CCC3(CCN(C(=O)c4ccco4)CC3)C2=O)ccc1-c1cn[nH]c1
D. COc1cccc(C(CCO)NC(=O)c2cc(-c3ccc4[nH]ncc4c3)ccn2)c1 (centres unmarked)
rank_up(items): orders items by reported IC50 in ascending numerical order. Write the labels in rank order as requested.
B, D, A, C

* * *

Consider the following IC50 data for ROCK2 (Homo sapiens, UniProt O75116), collected from several reports.

Use these answered entries as a reference point.
> print(dat)
                                   molecule    assay.result
1  CC(C)(O)Cn1ccc(C(=O)NC2CC3(C2)CC(c2n[nH]c(=O)c4ccccc24)C3)n1 (stereo not shown)  15.1 to 100 nM
2  COc1cccc(Cn2ccn(-c3ccc(-c4cn[nH]c4)cc3)c2=O)c1F  20.1 to 200 nM
3  COc1cccc(C(C)N2C(=O)N(c3ccc(-c4cn[nH]c4)cc3)CC23CC3)c1 (single isomer, unassigned)    30 to 250 nM
4  COc1cccc(C(C)n2ccn(-c3ccc(-c4cn[nH]c4)cn3)c2=O)c1 (single isomer, unassigned)  20.1 to 200 nM
5  COc1cc(N2CCC3(CCN(C(=O)c4cc(C5CC5)on4)CC3)C2=O)ccc1-c1cn[nH]c1            6 nM
6  NC(=O)c1sc(C2CC2)nc1O[C@H]1CC2(C[C@H](NC(=O)c3cnn4cc(OCC(F)F)ccc34)C2)C1 (stereo partly shown)         23.3 nM

Alright, here's another molecule for you.
Fill in: IC50 of COc1cc(F)cc([C@@H](CO)NC(=O)c2ncc3cc(-c4cn[nH]c4)ccn23)c1 is ___
≤ 50 nM

* * *

Collected IC50 for ROCK2 (Homo sapiens) across several studies; compounds listed below.
parameter: IC50 (nM)

// known answers, use as guide
> print(dat)
                                   compound  parameter  assay.result
1  COc1cccc(C(CO)NC(=O)c2ccc(F)c(-c3ccc4[nH]ncc4c3)c2)c1 (stereo not drawn)       IC50             5
2  Cc1nc(O[C@H]2C[C@@]3(C[C@H](NC(=O)c4cnn5c(C6CC6)c(OCC(C)(C)O)ccc45)C3)C2)c(C(N)=O)s1 (stereo partly drawn)       IC50             7
3  Cc1c(C(=O)N[C@H]2C[C@]3(C2)C[C@H](Oc2nn4ccccc4c2C(N)=O)C3)cnn1-c1ccc(C(F)(F)F)cn1 (stereo partly drawn)       IC50           805
4  [H][C@]1(Oc2ncccc2C(N)=O)C[C@@]2(C[C@H](Nc3nccc(N4CC[C@H](F)C4)n3)C2)C1 (stereo partly drawn)       IC50          2030

1. O=C(N[C@H](CO)c1c(F)cccc1F)c1ccc(-c2cn[nH]c2)c(Cl)c1
2. CC(C)(O)COc1ccc2c(C(=O)N[C@H]3C[C@]4(C3)C[C@H](Oc3c(C(N)=O)cnn3CCCN)C4)cnn2c1C1CC1 (stereo partly drawn)
3. CN(C(=O)c1cc2ccc(-c3nccc(Nc4ccc(-c5cn[nH]c5)cc4)n3)cc2[nH]1)c1ccncc1
Arrange items by their IC50 values in increasing order. Response field: labels, in requested order.
1, 3, 2

* * *

Below are IC50 values for ROCK2 (Homo sapiens, UniProt O75116) collected from several publications.

> print(dat)
                                   molecule  parameter  assay.result
1  COc1cc(F)cc(CN2C(=O)N(c3ccc(-c4cn[nH]c4)cc3)CC23CCOCC3)c1       IC50        < 3 nM
2  [H][C@]1(c2n[nH]c(=O)c3ccccc32)C[C@]2(C[C@@H](NC(=O)c3cnc4cc(N5CCC(F)(F)C5)ccn34)C2)C1 (stereo partly shown)       IC50   0.2 to 2 nM

Checklist item: IC50 tested on ROCK2 (Homo sapiens, UniProt O75116), entry NC(=O)c1cccnc1Oc1ccc(CC(=O)Nc2nc3ccc(F)cc3n2CC(F)F)cc1F , value?
24 nM

Write down the reported IC50 of O=C1N(c2ccc(-c3cn[nH]c3)cc2)CC2(CCOCC2)N1Cc1ccc(F)c(F)c1 , test system: ROCK2 (Homo sapiens, UniProt O75116).
3 to 30 nM

* * *

The following compounds were reported with pIC50 values on ROCK2 (Homo sapiens) in different studies.
pIC50: −log10 of the molar value.
parameter: pIC50

Solved entries:
> print(dat)
                                   compound        assayed.target  parameter  assay.result
1  COc1cccc(CNC(=O)c2ccc(-c3cn[nH]c3)cc2N)c1  ROCK2 (Homo sapiens)      pIC50          7.49
2  NC(=O)c1cccnc1OC1CC2(C1)CC(N1C(=O)CN(Cc3ccccc3)C1=O)C2 (stereo not drawn)  ROCK2 (Homo sapiens)      pIC50          6.65
3  COc1cccc(C(=O)N2CCC3(CC2)CCN(c2ccc(-c4cn[nH]c4)cc2)C3=O)c1  ROCK2 (Homo sapiens)      pIC50          7.07
4  CC(O)c1cc(C(=O)NCc2c(F)cccc2Cl)ccc1-c1cn[nH]c1 (stereo not drawn)  ROCK2 (Homo sapiens)      pIC50          5.75
5  Cn1ccc(-c2ccc3sc(NC(=O)Cc4ccc(Oc5ncccc5C(N)=O)c(F)c4)nc3c2)n1  ROCK2 (Homo sapiens)      pIC50          8.15

I. NC(=O)c1cccnc1O[C@H]1C[C@]2(C1)C[C@H](N1C(=O)CN(c3ccc(Cc4ccccc4)cc3)C1=O)C2 (stereo partly drawn)
II. NC(=O)c1cc2c(nc1OC1CC3(CC(NC(=O)c4cnn5ccccc45)C3)C1)CCOC2 (stereo not drawn)
I need your help: which of the pair I , II has higher pIC50? Lab log: write the label of the selected item as the result.
I
(I: 7.77, II: 6.49)
